# System: cancer cells
# method_notes: MTT cytotoxic assay of esterification products (Cytotoxicity activity)
# Assay type: cell-based, human
# experimental_setup: esterification products isolated with HPLC; graded strong / moderate / weak
quantity_name: Cytotoxicity activity

>>> assay_result("CC=CC(=O)OC1CCC2(C)C(CCC3(C)C2CC=C2C4CC(C)(C)C(O)C(O)C4(COC(=O)C(C)=CC)C(O)CC23C)C1(C)COC(=O)C(C)=CC (stereo not drawn)")
"moderate"
>>> assay_result("CC=CC(=O)OC1C(O)C(C)(C)CC2C3=CCC4C5(C)CCC(O)C(C)(COC(=O)C(C)=CC)C5CCC4(C)C3(C)CC(O)C21COC(=O)C(C)=CC (stereo not drawn)")
"moderate"
>>> assay_result("CC=C(C)C(=O)OCC1(C)C(O)CCC2(C)C1CCC1(C)C2CC=C2C3CC(C)(C)C(O)C(O)C3(COC(=O)C(CC)CC)C(O)CC21C (stereo not drawn)")
"strong"
>>> assay_result("CC=CC(=O)OC1C(O)C(C)(C)CC2C3=CCC4C5(C)CCC(O)C(C)(COC(=O)C(C)=CC)C5CCC4(C)C3(C)CC(O)C21CO (stereo not drawn)")
"moderate"
>>> assay_result("CC=C(C)C(=O)OCC1(C)C(O)CCC2(C)C1CCC1(C)C2CC=C2C3CC(C)(C)C(O)C(OC(C)=O)C3(CO)C(O)CC21C (stereo not drawn)")
"moderate"
>>> assay_result("CC=CC(=O)OCC12C(O)CC3(C)C(=CCC4C5(C)CCC(O)C(C)(COC(=O)C(C)=CC)C5CCC43C)C1CC(C)(C)C(O)C2O (stereo not drawn)")
"strong"

====

# Tested on: cancer cells
# method_notes: MTT cytotoxic assay of esterification products (Cytotoxicity activity)
# Format: cell-based, human
# experimental_setup: E4A esterified with Crotonoyl chloride (Cro = Crotonoyl), compounds isolated with HPLC
quantity_name: Cytotoxicity activity

>>> assay_result("CC=CC(=O)OCC1(C)C(O)CCC2(C)C1CCC1(C)C2CC=C2C3CC(C)(C)C(O)C(OC(=O)C=CC)C3(COC(=O)C=CC)C(O)CC21C (stereo not drawn)")
"moderate"
>>> assay_result("CC=CC(=O)OCC1(C)C(OC(=O)C=CC)CCC2(C)C1CCC1(C)C2CC=C2C3CC(C)(C)C(O)C(OC(=O)C=CC)C3(COC(=O)C=CC)C(OC(=O)C=CC)CC21C (stereo not drawn)")
"weak"
>>> assay_result("CC=CC(=O)OCC1(C)C(O)CCC2(C)C1CCC1(C)C2CC=C2C3CC(C)(C)C(O)C(O)C3(COC(=O)C=CC)C(OC(=O)C=CC)CC21C (stereo not drawn)")
"moderate"

====

# Test system: cancer cells
# method_notes: MTT cytotoxic assay of esterification products (Cytotoxicity activity)
# Format: cell-based, human
# experimental_setup: MTT cytotoxic assay, isolated esterification products of E4A
# Method: The peaks, fractions and compounds are selected according to the activities of times studies and the changes of peaks. Selecting the HPLC fractions for isolation is according to the cytotoxic activity of the reaction product obtained at a specific time. The compounds having strong to weak activities are selected and isolated. […] Method: 40 mg of triterpene core (fraction IV) was dissolved in 1 ml pyridine in a 50 ml tube. […] Structures are determined with NMR. […]
quantity_name: Cytotoxicity activity

>>> assay_result("C=CCCC(=O)OCC1(C)C(O)CCC2(C)C1CCC1(C)C2CC=C2C3CC(C)(C)C(O)C(OC(=O)CCC=C)C3(COC(=O)CCC=C)C(OC(=O)CCC=C)CC21C (stereo not drawn)")
"weak"
>>> assay_result("CC(C)=CC(=O)OCC1(C)C(O)CCC2(C)C1CCC1(C)C2CC=C2C3CC(C)(C)C(O)C(O)C3(CO)C(O)CC21C (stereo not drawn)")
"moderate"
>>> assay_result("CCC(CC)C(=O)OCC12C(O)CC3(C)C(=CCC4C5(C)CCC(O)C(C)(CO)C5CCC43C)C1CC(C)(C)C(OC(=O)C(CC)CC)C2O (stereo not drawn)")
"moderate"
